# Assay type: in vitro ADME
# applied conditions: rat liver microsomes
Entries and their Metabolic Stability R (% Rem.)
Dear colleague, please return just the value in % Rem., with no unit written.

Check out these entries, answers already filled in.
CNC(=O)c1cccc(-c2ccc3nc(N)n(-c4ccc(C(F)(F)F)cc4)c(=O)c3c2)c1 [compound 11] ... 100
CNc1nc2ccc(-c3cccc([S+](C)[O-])c3)cc2c(=O)n1-c1ccc(C(F)(F)F)cc1 (stereo not shown) [compound 40] ... 90
CS(=O)(=O)c1cccc(-c2ccc3nc(N)n(-c4ccc(C(F)(F)F)cc4)c(=O)c3c2)c1 [compound 1] ... 100
C[S+]([O-])c1cccc(-c2ccc3nc(N)n(-c4cccc(C(F)(F)F)c4)c(=O)c3c2)c1 (stereo not shown) [compound 34] ... 58
C[S+]([O-])c1cccc(-c2ccc3nc(N)n(Cc4ccc(C(F)(F)F)cc4)c(=O)c3c2)c1 (stereo not shown) [compound 58] ... 61
CN1CCN(C(=O)c2cccc(-c3ccc4nc(N)n(-c5ccc(C(F)(F)F)cc5)c(=O)c4c3)c2)CC1 [compound 19] ... 86

Attention now shifts to the item below.
Please give the documented Metabolic Stability R (% Rem.) of Nc1nc2ccc(-c3cccc(C(=O)N4CCOCC4)c3)cc2c(=O)n1-c1ccc(C(F)(F)F)cc1 [compound 16] 77

* * *

Entries and their Metabolic Stability H (% Rem.)
# Type: in vitro ADME
# applied conditions: human liver microsomes
# Protocol: 3.2. Microsomal stability The metabolic stability assay was performed in duplicate in a 96-well micro titre plate. […]

Please give the documented Metabolic Stability H (% Rem.) of C[S+]([O-])c1cccc(-c2ccc3nc(N)n(-c4ccc(F)cc4)c(=O)c3c2)c1 (centres unmarked) [compound 49] 82 % Rem.

* * *

# Type: in vitro ADME
# applied conditions: mouse liver microsomes
Assign label 1 to entries whose Metabolic Stability M (% Rem.) meets or exceeds 90 % Rem.; assign label 0 to the rest.

Previously resolved entries follow.
Nc1nc2ccc(-c3cccc(S(=O)(=O)C4CC4)c3)cc2c(=O)n1-c1ccc(C(F)(F)F)cc1 ... label 1
C[S+]([O-])c1cccc(-c2ccc3nc(N)n(-c4ccc(C(F)(F)F)nc4)c(=O)c3c2)c1 (centres unmarked) ... label 1
Cc1ccc(-n2c(N)nc3ccc(-c4cccc([S+](C)[O-])c4)cc3c2=O)cc1 (centres unmarked) ... label 0
CNc1nc2ccc(-c3cccc([S+](C)[O-])c3)cc2c(=O)n1-c1ccc(C(F)(F)F)cc1 (centres unmarked) ... label 0

Here's the next entry for you.
Identify whether the reported Metabolic Stability M (% Rem.) of the following compound is 90 % Rem. or greater: C[S+]([O-])c1cccc(-c2ccc3nc(N)n(-c4ccc(F)cc4)c(=O)c3c2)c1 (centres unmarked) label 1

* * *

# assay name: physchem
# Format: physicochemical
# applied conditions: 25 °C, pH 7.4, aqueous buffer, kinetic solubility, pH 7.4, HPLC method
Entries and their solubility

Check out these entries, answers already filled in.
CNC(=O)c1cccc(-c2ccc3nc(N)n(-c4ccc(C(F)(F)F)cc4)c(=O)c3c2)c1 ... < 5 µM
C[S+]([O-])c1cccc(-c2ccc3nc(N)n(-c4ccc(C(F)(F)F)nc4)c(=O)c3c2)c1 (stereo not drawn) ... < 5 µM

Please give the documented solubility of C[S+]([O-])c1cccc(-c2ccc3nc(N)n(C4CCC(F)(F)CC4)c(=O)c3c2)c1 (stereo not drawn) > 100 µM

* * *

Entries and their Metabolic Stability R (% Rem.)
# Type: in vitro ADME
# applied conditions: rat liver microsomes
# Protocol: 3.2. Microsomal stability The metabolic stability assay was performed in duplicate in a 96-well micro titre plate. […]
Dear colleague, please return just the value in % Rem., with no unit written.

Check out these entries, answers already filled in.
CN(C)C(=O)c1cccc(-c2ccc3nc(N)n(-c4ccc(C(F)(F)F)cc4)c(=O)c3c2)c1 ... 86
Nc1nc2ccc(-c3cccc(S(=O)(=O)C4CC4)c3)cc2c(=O)n1-c1ccc(C(F)(F)F)cc1 ... 98

Attention now shifts to the item below.
Please give the documented Metabolic Stability R (% Rem.) of NC(=O)c1cccc(-c2ccc3c(=O)n(-c4ccc(C(F)(F)F)cc4)c(N)nc3c2)c1 93

* * *

# Type: in vitro ADME
# applied conditions: human liver microsomes
Entries and their Metabolic Stability H (% Rem.)
Dear colleague, please return just the value in % Rem., with no unit written.

CN1CCN(C(=O)c2cccc(-c3ccc4nc(N)n(-c5ccc(C(F)(F)F)cc5)c(=O)c4c3)c2)CC1 ... 97

Please give the documented Metabolic Stability H (% Rem.) of CN(C)C(=O)c1cccc(-c2ccc3nc(N)n(-c4ccc(C(F)(F)F)cc4)c(=O)c3c2)c1 85

Please give the documented Metabolic Stability H (% Rem.) of CN(C)c1nc2ccc(-c3cccc(S(C)(=O)=O)c3)cc2c(=O)n1-c1ccc(C(F)(F)F)cc1 85

Please give the documented Metabolic Stability H (% Rem.) of CS(=O)(=O)c1cccc(-c2ccc3nc(N)n(-c4ccc(C(F)(F)F)cc4)c(=O)c3c2)c1 97

Please give the documented Metabolic Stability H (% Rem.) of CNc1nc2ccc(-c3cccc([S+](C)[O-])c3)cc2c(=O)n1-c1ccc(C(F)(F)F)cc1 (stereo not shown) 89

* * *

# Format: in vitro ADME
# applied conditions: mouse liver microsomes
Entries and their Metabolic Stability M (% Rem.)
Dear colleague, please return just the value in % Rem., with no unit written.

Nc1nc2ccc(-c3cccc(C(=O)NCCO)c3)cc2c(=O)n1-c1ccc(C(F)(F)F)cc1 [compound 14] ... 90
C[S+]([O-])c1cccc(-c2ccc3nc(N)n(-c4ccc(C#N)cc4)c(=O)c3c2)c1 (stereo not drawn) [compound 54] ... 91

Attention now shifts to the item below.
Please give the documented Metabolic Stability M (% Rem.) of CN(C)c1nc2ccc(-c3cccc(S(C)(=O)=O)c3)cc2c(=O)n1-c1ccc(C(F)(F)F)cc1 [compound 43] 90
